All values here come from patent US11008314B2.

TARGET SYSTEM: JAK3 (Homo sapiens (Human))
Sequence (P52333 whole entry, species assumed): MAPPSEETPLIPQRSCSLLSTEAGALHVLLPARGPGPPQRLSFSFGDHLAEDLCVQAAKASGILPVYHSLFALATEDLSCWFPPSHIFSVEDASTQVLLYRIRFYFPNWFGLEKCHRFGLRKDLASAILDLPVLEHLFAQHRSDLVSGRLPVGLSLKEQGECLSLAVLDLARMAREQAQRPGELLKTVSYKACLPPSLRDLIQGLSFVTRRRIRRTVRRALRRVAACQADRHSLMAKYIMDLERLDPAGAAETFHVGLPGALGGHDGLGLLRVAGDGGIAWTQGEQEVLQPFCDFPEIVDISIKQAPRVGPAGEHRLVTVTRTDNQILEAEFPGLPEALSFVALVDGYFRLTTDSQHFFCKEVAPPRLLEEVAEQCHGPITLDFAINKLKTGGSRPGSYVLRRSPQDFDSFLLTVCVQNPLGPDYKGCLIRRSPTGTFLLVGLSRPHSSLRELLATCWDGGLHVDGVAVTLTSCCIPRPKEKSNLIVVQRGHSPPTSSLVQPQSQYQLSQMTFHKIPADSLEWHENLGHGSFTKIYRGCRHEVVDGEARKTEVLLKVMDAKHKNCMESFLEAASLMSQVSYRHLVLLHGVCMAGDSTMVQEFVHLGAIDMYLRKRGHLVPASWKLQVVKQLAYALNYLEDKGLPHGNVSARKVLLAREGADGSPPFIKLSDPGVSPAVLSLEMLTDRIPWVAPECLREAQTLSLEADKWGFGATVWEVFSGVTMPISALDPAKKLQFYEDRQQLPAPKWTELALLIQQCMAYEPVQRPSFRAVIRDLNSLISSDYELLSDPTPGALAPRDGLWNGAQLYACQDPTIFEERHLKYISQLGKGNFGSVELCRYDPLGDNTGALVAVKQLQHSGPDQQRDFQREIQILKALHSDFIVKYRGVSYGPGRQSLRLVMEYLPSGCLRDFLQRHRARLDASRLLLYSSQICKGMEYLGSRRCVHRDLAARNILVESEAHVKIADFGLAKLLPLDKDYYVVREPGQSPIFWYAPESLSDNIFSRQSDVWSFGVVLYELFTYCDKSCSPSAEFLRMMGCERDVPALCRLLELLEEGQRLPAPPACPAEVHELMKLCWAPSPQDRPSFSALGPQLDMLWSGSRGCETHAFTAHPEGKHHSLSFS
EXPERIMENT: IC50 against JAK3
Type: biochemical
ASSAY ENDPOINT: IC50

Before answering, review these 3 worked examples.
CHEMICAL STRING: C=CC(=O)N1CCN(C(=O)c2cc(Sc3cnc(Nc4ncc(C)nc4C)s3)c(C)cc2C)CC1
TARGET SYSTEM: JAK3 (Homo sapiens (Human))
IC50: 100 to 1000 nM
--
CHEMICAL STRING: C=CC(=O)N1CCN(C(=O)c2cc(Sc3cnc(NC(=O)C4CC4)s3)c(C)cc2OC)[C@H](C)C1
TARGET SYSTEM: JAK3 (Homo sapiens (Human))
IC50: 100 to 1000 nM
--
CHEMICAL STRING: C=CC(=O)N1CCN(C(=O)c2cc(Sc3cnc(NC(=O)C4CC4)s3)c(C)cc2OC)CC1
TARGET SYSTEM: JAK3 (Homo sapiens (Human))
IC50: 100 to 1000 nM

Okay, next one:
I would be grateful if you could share the reported IC50 for `C=CC(=O)N1C[C@H]2CC[C@@H](C1)N2C(=O)c1cc(Sc2cnc(NC(=O)C3CC3)s2)c(C)cc1OC` .
10 to 100 nM

----------
TARGET SYSTEM: TXK (Homo sapiens (Human), UniProt P42681)
Sequence (P42681 whole entry, species assumed): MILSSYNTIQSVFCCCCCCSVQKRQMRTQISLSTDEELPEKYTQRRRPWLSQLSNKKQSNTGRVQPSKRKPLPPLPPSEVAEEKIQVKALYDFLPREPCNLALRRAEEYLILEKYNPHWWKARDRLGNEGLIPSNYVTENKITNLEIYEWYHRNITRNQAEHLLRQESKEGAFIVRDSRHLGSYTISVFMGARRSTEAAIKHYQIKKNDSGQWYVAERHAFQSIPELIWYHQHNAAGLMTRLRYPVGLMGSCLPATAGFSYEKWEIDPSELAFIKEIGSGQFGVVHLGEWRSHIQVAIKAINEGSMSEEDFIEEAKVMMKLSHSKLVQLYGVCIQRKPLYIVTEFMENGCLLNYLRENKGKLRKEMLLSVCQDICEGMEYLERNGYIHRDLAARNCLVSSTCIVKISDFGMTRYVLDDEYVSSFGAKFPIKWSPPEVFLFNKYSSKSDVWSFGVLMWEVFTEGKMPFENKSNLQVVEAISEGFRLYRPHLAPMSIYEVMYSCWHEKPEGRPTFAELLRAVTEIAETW
EXPERIMENT: IC50 against TXK
Assay type: biochemical
CONDITION DESCRIPTION: ratio of TXK IC50 to ITK IC50
ASSAY ENDPOINT: TXK/ITK

Before answering, review these 3 worked examples.
CHEMICAL STRING: C=CC(=O)N1CCN(C(=O)c2cc(Sc3cnc(NC(C)=O)s3)c(C)cc2OC)C[C@@H]1C
TXK/ITK: 14.784
--
CHEMICAL STRING: C=CC(=O)N1CCCN(C(=O)c2cc(Sc3cnc(NC(=O)C4CC4)s3)c(C)cc2F)C[C@H]1C
TXK/ITK: 21.785
--
CHEMICAL STRING: C=CC(=O)N1CCN(C(=O)c2cc(Sc3cnc(NC(=O)c4cnn(C)c4)s3)c(C)cc2C)CC1
TXK/ITK: 12.1

[1] C=CC(=O)N1CCCN(C(=O)c2cc(Sc3cnc(NC(=O)C4CC4)s3)c(C)cc2C(F)(F)F)C[C@H]1C
[2] C=CC(=O)N1CCN(C(=O)c2cc(Sc3cnc(Nc4ccccn4)s3)c(Cl)cc2C)CC1
API: POST /compare with 1 and 2 ; response names the item with higher TXK/ITK. Selection: enter the item's label.
1
(1: 35.68, 2: 13.5)

[P] C=CC(=O)N1CCN(C(=O)c2cc(Sc3cnc(NC(=O)c4cnn(CCN(C)C)c4)s3)c(C)cc2OC)C[C@H]1CC
[Q] C=CC(=O)N1CCCN(C(=O)c2cc(Sc3cnc(NC(=O)C(C)(C)C)s3)c(C)cc2OC)CC1
API: POST /compare with P and Q ; response names the item with higher TXK/ITK. Selection: enter the item's label.
P

----------
TARGET SYSTEM: TXK (Homo sapiens (Human), UniProt P42681)
EXPERIMENT: IC50 against TXK
Assay type: biochemical
Reported values of IC50 for individual entries

CHEMICAL STRING: C=CC(=O)N1CCCN(C(=O)c2cc(Sc3cnc(NC(=O)c4cccc(CN(C)C)c4)s3)c(C)cc2OC)CC1
READOUT VALUE: 1000 to 10000 nM
//
CHEMICAL STRING: C=CC(=O)N1CC[C@@H](N(C)C(=O)c2cc(Sc3cnc(NC(C)=O)s3)c(C)cc2OC)C1
READOUT VALUE: 10 to 100 nM

Form: Entry = `C=CC(=O)N1CCN(C(=O)c2cc(Sc3cnc(NC(=O)c4cccc(CN(C)C)c4)s3)c(C)cc2OC)C[C@H]1CC` | System = TXK (Homo sapiens (Human), UniProt P42681) | IC50 = ____
10 to 100 nM

Now consider `C=CC(=O)N1CCCN(C(=O)c2cc(Sc3cnc(NC(=O)c4cnsc4)s3)c(C)cc2OC)C[C@H]1CC` .
100 to 1000 nM
